# Test: Toxicity in human neutrophils assessed as induction of necrosis at 100 uM incubated for 24 hrs by annexin V-FITC and propidium iodide staining based cytofluorometry
# Type: cell-based
# Condition details: neutrophil
Endpoint name: Activity (%)

1. O=C1O/C(=C\c2ccc(O)c(Br)c2)C(c2ccc(O)c(Br)c2)=C1C(=O)c1ccc(O)c(Br)c1 | 98
2. O=C1O/C(=C\c2ccc(O)c(Br)c2)C(c2cc(Br)c(O)c(Br)c2)=C1C(=O)c1ccco1 | 57
3. O=C1O/C(=C\c2ccc(O)c(Br)c2)C(c2cc(Br)c(O)c(Br)c2)=C1C(=O)c1ccc(O)c(Br)c1 | 36
4. O=C1O/C(=C\c2ccc(O)c(Br)c2)C(c2ccc(O)c(Br)c2)=C1C(=O)c1ccco1 | 95

* * *

# System: Enterococcus faecalis
# Test: Antibacterial activity against Enterococcus faecalis CECT 481 assessed as inhibition of microbial growth incubated for 18 hrs by 2-fold microtiter broth dilution method
# Type: functional, organism-based
# Condition details: CECT 481, 18 h
Endpoint name: MIC

1) O=C1O/C(=C\c2ccc(O)c(Br)c2)C(c2cc(Br)c(O)c(Br)c2)=C1C(=O)c1ccco1 | 1.95 µg/mL
2) O=C1O/C(=C\c2ccc(O)c(Br)c2)C(c2ccc(O)c(Br)c2)=C1C(=O)c1ccc(O)cc1 | 31.2 µg/mL
3) O=C1O/C(=C\c2cc(Br)c(O)c(Br)c2)C(c2ccc(O)c(Br)c2)=C1C(=O)c1ccc(O)c(Br)c1 | 1.95 µg/mL
4) O=C1O/C(=C\c2ccc(O)cc2)C(c2cc(Br)c(O)c(Br)c2)=C1C(=O)c1cc(Br)c(O)c(Br)c1 | 7.81 µg/mL

* * *

Catalogue of molecules with associated selectivity ratio
# Test: Selectivity index, ratio of cytotoxicity against human neutrophils by annexin V-FITC and propidium iodide staining based cytofluorometry to antibacterial IC50 against Escherichia coli CECT 405
# Format: toxicity
# Condition details: read-out: Selectivity Index
Endpoint name: selectivity ratio

1) O=C1O/C(=C\c2ccc(O)c(Br)c2)C(c2ccc(O)c(Br)c2)=C1C(=O)c1ccc(O)c(Br)c1 | 5
2) O=C1O/C(=C\c2ccc(O)c(Br)c2)C(c2ccc(O)c(Br)c2)=C1C(=O)c1ccco1 | 5
3) O=C1O/C(=C\c2ccc(O)c(Br)c2)C(c2cc(Br)c(O)c(Br)c2)=C1C(=O)c1ccco1 | 5
4) O=C1O/C(=C\c2ccc(O)c(Br)c2)C(c2cc(Br)c(O)c(Br)c2)=C1C(=O)c1ccc(O)c(Br)c1 | 5

* * *

# Test: Toxicity in human neutrophils assessed as induction of apoptosis at 30 and 100 uM incubated for 24 hrs by annexin V-FITC and propidium iodide staining based cytofluorometry
# Format: cell-based
# Condition details: neutrophil
Endpoint name: Activity

1. O=C1O/C(=C\c2ccc(O)c(Br)c2)C(c2cc(Br)c(O)c(Br)c2)=C1C(=O)c1ccc(O)c(Br)c1 | Non-toxic
2. O=C1O/C(=C\c2ccc(O)c(Br)c2)C(c2ccc(O)c(Br)c2)=C1C(=O)c1ccco1 | Non-toxic
3. O=C1O/C(=C\c2ccc(O)c(Br)c2)C(c2cc(Br)c(O)c(Br)c2)=C1C(=O)c1ccco1 | Non-toxic
4. O=C1O/C(=C\c2ccc(O)c(Br)c2)C(c2ccc(O)c(Br)c2)=C1C(=O)c1ccc(O)c(Br)c1 | Non-toxic

* * *

# Test: Toxicity in human neutrophils assessed as cell survival at 30 uM incubated for 24 hrs by annexin V-FITC and propidium iodide staining based cytofluorometry
# Condition details: neutrophil
Endpoint name: Activity

1. O=C1O/C(=C\c2ccc(O)c(Br)c2)C(c2ccc(O)c(Br)c2)=C1C(=O)c1ccc(O)c(Br)c1 | Non-toxic
2. O=C1O/C(=C\c2ccc(O)c(Br)c2)C(c2cc(Br)c(O)c(Br)c2)=C1C(=O)c1ccc(O)c(Br)c1 | Non-toxic
3. O=C1O/C(=C\c2ccc(O)c(Br)c2)C(c2ccc(O)c(Br)c2)=C1C(=O)c1ccco1 | Non-toxic
4. O=C1O/C(=C\c2ccc(O)c(Br)c2)C(c2cc(Br)c(O)c(Br)c2)=C1C(=O)c1ccco1 | Non-toxic

* * *

# Tested on: Escherichia coli
# Test: Antibacterial activity against Escherichia coli CECT 100 assessed as inhibition of microbial growth incubated for 18 hrs by 2-fold microtiter broth dilution method
# Format: functional, organism-based
# Condition details: CECT 100, 18 h
Endpoint name: MIC (µg/mL)

1) O=C1O/C(=C\c2ccc(O)c(Br)c2)C(c2cc(Br)c(O)c(Br)c2)=C1C(=O)c1ccco1 | 15.6
2) O=C1O/C(=C\c2ccc(O)c(Br)c2)C(c2ccc(O)c(Br)c2)=C1C(=O)c1ccc(O)cc1 | 15.6
3) O=C1O/C(=C\c2ccc(O)cc2)C(c2ccc(O)cc2)=C1C(=O)c1ccc(O)cc1 | 62.5
4) CN(C)[C@@H]1C(O)=C(C(N)=O)C(=O)[C@@]2(O)C(O)=C3C(=O)c4c(O)cccc4[C@@](C)(O)[C@H]3C[C@@H]12 [TETRACYCLINE] | 3.9
5) O=C1O/C(=C\c2ccc(O)cc2)C(c2ccc(O)cc2)=C1C(=O)c1ccco1 | 31.2
6) O=C1O/C(=C\c2ccc(O)c(Br)c2)C(c2ccc(O)c(Br)c2)=C1C(=O)c1ccco1 | 15.6

* * *

Catalogue of compounds with associated MIC
# Tested on: Enterococcus faecalis
# Test: Antibacterial activity against Enterococcus faecalis CECT 481 assessed as inhibition of microbial growth incubated for 18 hrs by 2-fold microtiter broth dilution method
# Assay type: functional, organism-based
# Condition details: CECT 481, 18 h
Endpoint name: MIC (µg/mL)

1. O=C1O/C(=C\c2cc(Br)c(O)c(Br)c2)C(c2ccc(O)cc2)=C1C(=O)c1cc(Br)c(O)c(Br)c1 | 15.6
2. O=C1O/C(=C\c2cc(Br)c(O)c(Br)c2)C(c2cc(Br)c(O)c(Br)c2)=C1C(=O)c1ccc(O)c(Br)c1 | 3.9
3. O=C1O/C(=C\c2cc(Br)c(O)c(Br)c2)C(c2cc(Br)c(O)c(Br)c2)=C1C(=O)c1ccc(O)cc1 | 3.9
4. O=C1O/C(=C\c2ccc(O)cc2)C(c2ccc(O)cc2)=C1C(=O)c1ccc(O)cc1 | 125
5. O=C1O/C(=C\c2ccc(O)c(Br)c2)C(c2ccc(O)c(Br)c2)=C1C(=O)c1cc(Br)c(O)c(Br)c1 [CADIOLIDE C] | 3.9
6. CN(C)[C@@H]1C(O)=C(C(N)=O)C(=O)[C@@]2(O)C(O)=C3C(=O)c4c(O)cccc4[C@@](C)(O)[C@H]3C[C@@H]12 | 0.48
7. O=C1O/C(=C\c2ccc(O)cc2)C(c2ccc(O)cc2)=C1C(=O)c1ccco1 | 31.2

* * *

# System: Enterococcus faecalis
# Test: Antibacterial activity against Enterococcus faecalis CECT 481 assessed as inhibition of microbial growth incubated for 18 hrs by 2-fold microtiter broth dilution method
# Type: functional, organism-based
# Condition details: CECT 481, 18 h
Catalogue of molecules with associated MIC
Endpoint name: MIC (µg/mL)

1. O=C1O/C(=C\c2ccc(O)c(Br)c2)C(c2ccc(O)c(Br)c2)=C1C(=O)c1ccco1 | 1.95
2. O=C1O/C(=C\c2ccc(O)c(Br)c2)C(c2cc(Br)c(O)c(Br)c2)=C1C(=O)c1ccc(O)c(Br)c1 | 1.95
3. O=C1O/C(=C\c2ccc(O)c(Br)c2)C(c2ccc(O)c(Br)c2)=C1C(=O)c1ccc(O)c(Br)c1 | 1.95
4. O=C1O/C(=C\c2cc(Br)c(O)c(Br)c2)C(c2cc(Br)c(O)c(Br)c2)=C1C(=O)c1cc(Br)c(O)c(Br)c1 [CADIOLIDE B] | 7.81

* * *

# System: Escherichia coli
# Test: Antibacterial activity against Escherichia coli CECT 405 assessed as inhibition of microbial growth incubated for 18 hrs by 2-fold microtiter broth dilution method
# Type: functional, organism-based
# Condition details: CECT 405, 18 h
pIC50: −log10 of the molar value.
Catalogue of compounds with associated pIC50
Endpoint name: pIC50

1. O=C1O/C(=C\c2ccc(O)c(Br)c2)C(c2ccc(O)c(Br)c2)=C1C(=O)c1ccco1 | 5.44
2. O=C1O/C(=C\c2ccc(O)c(Br)c2)C(c2cc(Br)c(O)c(Br)c2)=C1C(=O)c1ccc(O)c(Br)c1 | 5.57
3. O=C1O/C(=C\c2ccc(O)c(Br)c2)C(c2ccc(O)c(Br)c2)=C1C(=O)c1ccc(O)c(Br)c1 | 5.51
4. O=C1O/C(=C\c2ccc(O)c(Br)c2)C(c2cc(Br)c(O)c(Br)c2)=C1C(=O)c1ccco1 | 5.20

* * *

# Tested on: Escherichia coli
# Test: Antibacterial activity against Escherichia coli CECT 100 assessed as inhibition of microbial growth incubated for 18 hrs by 2-fold microtiter broth dilution method
# Assay type: functional, organism-based
# Condition details: CECT 100, 18 h
pIC50: −log10 of the molar value.
Catalogue of compounds with associated pIC50
Endpoint name: pIC50

1. O=C1O/C(=C\c2ccc(O)c(Br)c2)C(c2cc(Br)c(O)c(Br)c2)=C1C(=O)c1ccco1 | 4.59
2. O=C1O/C(=C\c2ccc(O)c(Br)c2)C(c2ccc(O)c(Br)c2)=C1C(=O)c1ccco1 | 4.53
